system: H. pylori Donostia 2 (LVX-R); experiment: MIC/MBC, broth microdilution; format: cell-based, Helicobacter pylori; conditions: Helicobacter pylori; H. pylori Donostia 2 (LVX-R); read-out: MIC
MEASUREMENT_TYPE: MIC (µg/mL)

>>> recorded_measurement("CSc1cccc(Nc2nc(C(C)(C)C)cs2)c1")
2
>>> recorded_measurement("N#C/C(=C\\C=C\\c1ccccc1)c1nc2ccccc2[nH]1")
1
>>> recorded_measurement("OC1(C(F)(F)F)CC(c2ccc3c(c2)Nc2ccccc2S3)=NN1 (centres unmarked)")
2
>>> recorded_measurement("CSc1cccc(NC(=S)NCCNc2c([N+](=O)[O-])cc(C(F)(F)F)cc2[N+](=O)[O-])c1")
4
>>> recorded_measurement("Cc1ncc([N+](=O)[O-])n1CCO [MTZ, metronidazole, reference compound]")
8
>>> recorded_measurement("C[C@H]1COc2c(N3CCN(C)CC3)c(F)cc3c(=O)c(C(=O)O)cn1c23 [LVX, levofloxacin, reference compound]")
16
>>> recorded_measurement("N#Cc1cnn(-c2ccc(C(F)(F)F)cc2[N+](=O)[O-])c1N")
2

###

target: HsrA (Helicobacter pylori, UniProt O25684); assay: Isothermal titration calorimetry (ITC) with HsrA; format: binding
Sequence (O25684 entry or part of it): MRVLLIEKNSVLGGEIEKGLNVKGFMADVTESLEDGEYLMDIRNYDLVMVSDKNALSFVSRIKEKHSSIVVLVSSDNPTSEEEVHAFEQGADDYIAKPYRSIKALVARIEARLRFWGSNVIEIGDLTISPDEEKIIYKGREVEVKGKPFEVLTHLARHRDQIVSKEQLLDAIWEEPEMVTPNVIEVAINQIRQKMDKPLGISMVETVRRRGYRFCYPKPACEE
MEASUREMENT_TYPE: Kd (µM)

>>> recorded_measurement("CSc1cccc(NC(=S)NCCNc2c([N+](=O)[O-])cc(C(F)(F)F)cc2[N+](=O)[O-])c1 [Ligand IV]")
3.9

###

molecular target: HsrA (Helicobacter pylori); experiment: Isothermal titration calorimetry (ITC) with HsrA; type: binding; conditions: ITC, 25 °C; absolute error 0.4
MEASUREMENT_TYPE: ΔH

>>> recorded_measurement("OC1(C(F)(F)F)CC(c2ccc3c(c2)Nc2ccccc2S3)=NN1 (stereo not drawn)")
"0.8 kcal/mol"
>>> recorded_measurement("N#C/C(=C\\C=C\\c1ccccc1)c1nc2ccccc2[nH]1")
"0.8 kcal/mol"

###

target: C. jejuni response regulator CosR (Campylobacter jejuni, UniProt Q0PBF4)
Sequence (Q0PBF4 entry or part of it): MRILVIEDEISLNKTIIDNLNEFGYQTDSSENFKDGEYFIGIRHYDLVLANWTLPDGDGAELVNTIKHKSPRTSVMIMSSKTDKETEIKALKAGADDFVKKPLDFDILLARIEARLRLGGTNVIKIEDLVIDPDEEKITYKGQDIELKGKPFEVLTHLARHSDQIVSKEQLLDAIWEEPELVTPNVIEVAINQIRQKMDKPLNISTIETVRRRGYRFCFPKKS
MEASUREMENT_TYPE: Kd (µM)

>>> recorded_measurement("NC(=NOC(=O)Nc1ccc(Cl)cc1)c1csc([N+](=O)[O-])c1")
26

###

tested on: H. pylori ATCC 700392 (26695); assay: MIC/MBC, broth microdilution; assay type: cell-based, Helicobacter pylori; conditions: H. pylori ATCC 700392 (26695)
MEASUREMENT_TYPE: MIC (µg/mL)

>>> recorded_measurement("NC(Cn1ccc(C(F)(F)F)n1)=NOC(=O)Nc1ccc(SC(F)(F)F)cc1")
8
>>> recorded_measurement("Cc1sc2c(c1C)C(O)=C(C(=O)Nc1ccc(OC(F)(F)F)cc1)S(=O)(=O)N2C")
32
>>> recorded_measurement("Cc1oc2ccccc2c1CC(=O)NNC(=S)Nc1cccc(C(F)(F)F)c1")
8
>>> recorded_measurement("CCOC(=O)c1ccc(-n2nnc(C=CC=CN3CCOCC3)n2)cc1")
16

###

test system: response regulator HsrA; assay: EMSA: inhibition of in vitro DNA binding activity of HsrA to promoter PporGDAB; type: biochemical, Helicobacter pylori; conditions: 6 μM HsrA, 120 ng PporGDAB, ligand 0.1-2 mM
MEASUREMENT_TYPE: Inhibition of in vitro DNA binding activity of HsrA (EMSA)

>>> recorded_measurement("CSc1cccc(Nc2nc(C(C)(C)C)cs2)c1")
"noticeably inhibited"
>>> recorded_measurement("NC(=NOC(=O)Nc1ccc(Cl)cc1)c1csc([N+](=O)[O-])c1")
"noticeably inhibited"
>>> recorded_measurement("N#Cc1cnn(-c2ccc(C(F)(F)F)cc2[N+](=O)[O-])c1N")
"noticeably inhibited"
>>> recorded_measurement("N#C/C(=C\\C=C\\c1ccccc1)c1nc2ccccc2[nH]1")
"noticeably inhibited"
